measurement_target: Beta-lactamase TEM (Escherichia coli)
method_summary: inhibition of purified E. coli TEM-1 enzyme – biochemical, epi-absorbance, HTS, counter-screen for VIM-2 inhibitor project (AID 1866);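 further: 0% = TEM-1 with DMSO and 100% = TEM-1 with 100 µM potassium clavulanate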
test_conditions: Purified TEM-1, nitrocefin hydrolysis, epi-absorbance fluorescence; at 5.6 µM; hits give high values
About 40 (3%) of roughly 1,300 compounds were called active. These entries were drawn from the full list.
Entries annotated with measured inhibition
result_type: inhibition (%)

| given_smiles | unit_spec | measured_result |
| --- | --- | --- |
| CCOc1cc(/C=C2\SC(N3CCCCC3)=NC2=O)ccc1O | % | -8.67 |
| NC(=O)C1CCN(C(=O)COc2ccc3c4c(c(=O)oc3c2)CCC4)CC1 | % | -5.63 |
| Cc1cc([N+](=O)[O-])c(-c2ccc(/C=N/n3cnnc3)o2)cc1Cl | % | -6.25 |
| CNC(=O)c1ccsc1NC(=O)c1ccc(S(=O)(=O)N2CCOCC2)cc1 | % | -7.75 |
| Cc1cc(NCc2ccco2)n2c(nc3ccccc32)c1C#N | % | -6.6 |
| Cc1cc(C)c2nc3nc(C)cc(C)c3c(N)c2c1 | % | -4.56 |
